Consider the following sequences and their measured phosphorylation enrichment readings.
molecular target: Jak2 (UniProt O60674); experiment: phosphorylation enrichment, bacterial display (enrichment ratio); higher = better substrate or ligand; peptides without Tyr show the background
Sequence (O60674 whole entry, looked up): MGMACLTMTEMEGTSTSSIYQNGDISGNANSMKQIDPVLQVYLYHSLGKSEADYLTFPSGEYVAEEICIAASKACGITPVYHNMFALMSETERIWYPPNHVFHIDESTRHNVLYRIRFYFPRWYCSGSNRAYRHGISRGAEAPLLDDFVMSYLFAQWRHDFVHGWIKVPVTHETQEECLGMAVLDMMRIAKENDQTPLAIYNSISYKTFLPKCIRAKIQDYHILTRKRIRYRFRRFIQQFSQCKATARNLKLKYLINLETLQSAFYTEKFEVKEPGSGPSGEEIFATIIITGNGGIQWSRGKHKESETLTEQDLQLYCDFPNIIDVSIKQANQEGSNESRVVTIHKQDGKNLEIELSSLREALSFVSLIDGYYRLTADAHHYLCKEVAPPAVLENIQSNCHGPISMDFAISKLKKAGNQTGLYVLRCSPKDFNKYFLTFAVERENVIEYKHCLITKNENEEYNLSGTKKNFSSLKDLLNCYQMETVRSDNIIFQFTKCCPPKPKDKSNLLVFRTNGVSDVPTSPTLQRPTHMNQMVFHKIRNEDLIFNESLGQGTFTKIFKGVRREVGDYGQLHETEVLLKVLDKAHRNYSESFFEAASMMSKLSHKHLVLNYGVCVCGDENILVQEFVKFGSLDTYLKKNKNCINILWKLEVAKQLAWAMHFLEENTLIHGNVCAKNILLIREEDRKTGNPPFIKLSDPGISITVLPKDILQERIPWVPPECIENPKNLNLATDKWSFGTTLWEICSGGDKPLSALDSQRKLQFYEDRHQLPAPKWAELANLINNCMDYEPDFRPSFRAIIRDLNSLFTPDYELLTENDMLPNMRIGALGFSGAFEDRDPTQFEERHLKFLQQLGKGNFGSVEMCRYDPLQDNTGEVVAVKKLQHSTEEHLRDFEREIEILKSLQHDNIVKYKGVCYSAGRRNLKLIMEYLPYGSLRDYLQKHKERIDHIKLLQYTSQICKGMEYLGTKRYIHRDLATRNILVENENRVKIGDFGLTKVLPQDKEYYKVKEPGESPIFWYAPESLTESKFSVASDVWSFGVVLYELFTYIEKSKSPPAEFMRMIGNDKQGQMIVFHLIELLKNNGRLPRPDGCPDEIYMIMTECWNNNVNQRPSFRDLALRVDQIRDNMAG
quantity name: phosphorylation enrichment

1. ASELGYQFQAI [UROD_Y133_V134Q] : 0.679
2. PRARTYCYKQE [KLHDC9_Y175_S171R] : 0.981
3. EFGEVYKGMLK [EPHA2_Y628] : 0.394
4. KWHREYNSKYV [RICTOR_Y835] : 0.513
5. VIKDKYPQARY [APTX_Y209_K211Q] : 0.554
6. KDIENYIQDGK [RAD50_Y964] : 0.82
7. CTTIHQNYMCN [TP53_Y234_Y234Q] : 0.796
8. SKQGKYLNWDA [ATM_Y54] : 0.666
9. RGEKQYLATPL [ALOX12_Y295_A298T] : 0.931
10. TEFSQYMRRKN [MAX_Y73_I71S_YF] : 0.727
11. SVTCPYSPALN [TP53_Y126_T125P] : 1.17
12. VDSTEYEVASQ [SLC7A7_Y7] : 1.04
13. AQQPIYIRVEG [NLRP7_Y318_V319I] : 0.955
14. RHFSSYSQMEN [PKP1_Y120_R116H] : 0.545

----------
Consider the following sequences and their measured phosphorylation enrichment readings.
system: AncSZ; experiment: phosphorylation enrichment, bacterial display (enrichment ratio); higher = better substrate or ligand; peptides without Tyr show the background
quantity name: phosphorylation enrichment

1) CENCHYPIVPL [LCK_Y25] : 0.698
2) LENSTYQFIHV [CRB1_Y760_R764H_YF] : 1.77
3) RGEKQYLATPL [ALOX12_Y295_A298T] : 0.861
4) VNRSGYTLIRK [ATP6V0A2_Y688] : 0.64
5) VFDHIYTTQSD [RET_Y928_L923V] : 0.978
6) FADTAYNFRHG [PAH_Y166_I164T_YF] : 0.599
7) QNTGVYFDLFG [PTPN11_Y62_D61V_YF] : 2
8) EQLQSYQVEII [KRT33A_Y268_A270V] : 1.14
9) DTKDDYSALSV [IL17RB_Y457_N458S] : 1.05
10) SRDPFYEMLTA [CYTH1_Y382_A386T] : 1.25
11) KAWTIYRPEDS [ZBP1_Y165] : 1.41
12) LTEEKYELKEG [TREM1_Y29] : 2.36
13) KMLEKYKERLN [TLK2_Y259] : 0.634
14) FVHDNYVIQRT [CPS1_Y1450_R1453Q] : 0.788

----------
Consider the following sequences and their measured SH2 binding enrichment readings.
target: SHP2-C SH2; test: SH2 binding enrichment of the phosphorylated peptide, bacterial display (enrichment ratio); higher = better substrate or ligand; peptides without Tyr show the background;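 also: peptide library displayed on the E. coli surface as eCPX fusions, selected cells deep-sequenced, score is each peptide's frequency after selection divided by its frequency in the input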
quantity name: SH2 binding enrichment

1. FLAVGYHKPYI [IDS_Y225_H229Y] : 1.14
2. EKMWSYMKSAE [GRIA3_Y705] : 0.86
3. TFEFRYLEDQD [CNOT3_Y746_R750Q_YF] : 0.865
4. IYLGAYDRFLP [SLC22A5_Y486_V481I] : 2.29
5. LTEHGYSFTTT [ACTB_Y198_R196H] : 0.883
6. WAFNLYDINKF [KCNIP3_Y174_D179Y_YF] : 0.731
7. NHYKRYNLCAE [PTEN_Y68_I67R] : 0.769
8. MSSHHYDYKKY [ZNF445_Y428] : 0.692
9. VQDPAYLRDIN [OPRK1_Y369_D374N] : 0.555
10. KRISCYEARYQ [PFKFB3_Y194_S197R] : 0.682
11. NPQKPYFIRLF [WAS_Y83_S82P_YF] : 0.924
12. AVSEGYKDFRA [CDA_Y79] : 0.554
13. KDHPDYKFPPR [SOX10_Y171_Q174P_YF] : 0.783
14. CATIHYNYMCN [TP53_Y234_T230A] : 3.31
15. DFLEKYFKFGS [NNMT_Y24_YF] : 0.386
16. SVTCPYSPALN [TP53_Y126_T125P] : 0.7
17. YRNKPYISWPS [CDC42BPB_Y1638_S1633Y] : 1.64
18. CRAVKYLQMVR [AVPR2_Y117_G122R] : 1.25
19. ADARMYGVLPW [PLP1_Y207] : 0.7
20. HRFAAYFQQGD [GPI_Y351] : 0.77
21. PSSNLYYRCLT [CNGA3_Y168_W171C] : 0.629
22. EQSGSYIWVPA [DLG1_Y895] : 0.604
23. YSPCDYQPCLA [TNS1_Y798_Y796C] : 0.908
24. GIPIQYPIISE [NOG_Y222_W217G] : 0.457
25. RMSQRYRDVLQ [CYP1A2_Y72_G73R] : 0.548
26. AISEGYKDFRA [CDA_Y79_V75I] : 0.536
27. CEHRGHLFLAI [TEK_Y897_Y897H_YF] : 1.06
28. LENSTYQFIHV [CRB1_Y760_R764H_YF] : 0.652
29. AVISVYDLVVV [PSEN1_Y256_A260V] : 1.03

----------
molecular target: Hck (UniProt P08631); assay: phosphorylation enrichment, bacterial display (enrichment ratio); higher = better substrate or ligand; peptides without Tyr show the background
Sequence (P08631 whole entry, looked up): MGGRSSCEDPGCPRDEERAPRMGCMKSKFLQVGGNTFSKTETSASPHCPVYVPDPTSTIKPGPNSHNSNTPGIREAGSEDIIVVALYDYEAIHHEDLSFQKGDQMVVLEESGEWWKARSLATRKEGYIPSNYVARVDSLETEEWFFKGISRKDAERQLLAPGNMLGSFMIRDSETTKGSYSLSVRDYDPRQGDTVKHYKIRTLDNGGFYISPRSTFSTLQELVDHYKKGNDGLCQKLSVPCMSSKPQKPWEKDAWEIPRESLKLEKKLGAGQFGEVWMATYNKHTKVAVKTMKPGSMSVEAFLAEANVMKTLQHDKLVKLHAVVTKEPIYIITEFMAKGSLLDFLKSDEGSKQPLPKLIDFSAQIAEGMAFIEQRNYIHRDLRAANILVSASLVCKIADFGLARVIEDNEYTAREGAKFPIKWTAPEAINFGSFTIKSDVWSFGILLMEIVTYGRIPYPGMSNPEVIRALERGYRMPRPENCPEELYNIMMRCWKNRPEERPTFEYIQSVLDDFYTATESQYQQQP
The class of a record is decided solely by its measured phosphorylation enrichment; consult bottom bin (below 0.5), middle bin (0.5 to below 0.7), top bin (0.7 or more)

1. GLSDLYVKIHL [SYT2_Y309_P308L] : middle bin
2. LNFNEYFRDLN [HPRT1_Y198_D194N_YF] : top bin
3. MSGDVYSTDFF [NTRK2_Y702_R699G_YF] : top bin
4. DSFATYFRRVL [H2BW1_Y84] : top bin
5. TKFVAYIESQG [KDM4B_Y34_N29T_YF] : middle bin
6. LIHLHYIRKDF [BBS4_Y43_YF] : middle bin
7. DLLNSYIENEG [HSPA4L_Y600] : bottom bin
8. FQKNIYSEEPR [LMNA_Y211_L215P] : top bin
9. VDASYCGGRGV [ANTXR2_Y381_Y381C] : bottom bin
10. WDLSEYSYKDP [ITGA3_Y237] : middle bin
11. QGLMPYGQPRP [SRRT_Y798] : middle bin
12. LARDMHDKEYY [MET_Y1230_Y1230H] : bottom bin
13. HFPFQYHRQLF [F12_Y53_YF] : middle bin
14. RAADYYSQQMA [GBP6_Y334] : bottom bin
15. EWQQIYTYDSG [JUP_Y20_T19I] : top bin
16. LLVVLNKYRCY [PSEN1_Y154_Y154N] : bottom bin
17. MHDSNSVSKGS [PDGFRA_Y849_Y849S] : bottom bin
18. CRAVKYLQMVR [AVPR2_Y117_G122R] : bottom bin
19. RLDPVYFVAPA [LAMC2_Y250] : top bin
20. NTDETYCIDNK [TUBB3_Y200_E205K] : middle bin
21. VQDPAYLRDIN [OPRK1_Y369_D374N] : bottom bin
22. DENWFYTRAAF [RPS19_Y54_S59F] : middle bin
23. EEEYEYMNRRR [ERBB3_Y1199_D1194E] : middle bin
24. LADKPYTFEDY [FXN_Y118] : top bin
25. VMTSKYRGGGG [HBA1_Y141_L137M] : bottom bin
26. VFFDLYGGEKF [PTPN11_Y66_D61V_YF] : top bin

----------
system: c-Src; experiment: phosphorylation enrichment, bacterial display (enrichment ratio); higher = better substrate or ligand; peptides without Tyr show the background
Kindly return class 1 if reported phosphorylation enrichment is no lower than 0.9; return class 0 if it is lower.

1. DRTVHYVDEKG [IFT140_Y216_G212R] : class 0
2. EQLQSYQVEII [KRT33A_Y268_A270V] : class 0
3. KNSFKYFMSDD [ATRX_Y203_C200S_YF] : class 0
4. KKGIVYVFNGR [ITGAV_Y404_I405V] : class 0
5. GFILMYDITNE [RAB3C_Y110] : class 0
6. RLCQDYDTIGP [ANK1_Y1073] : class 1
7. LVMFTYAIFGM [SCN1A_Y1684_I1683T] : class 1
8. TFEFRYLEDQD [CNOT3_Y746_R750Q_YF] : class 0
9. MCVKSYTIHFS [F5_Y2153_Y2149C_YF] : class 0
10. SGTYQYIIAKF [FOXL2_Y83_I80T] : class 1
11. RKKLFYKADGE [SERPINC1_Y272_E269K] : class 0
12. NTGDFYDLFGG [PTPN11_Y63_YF] : class 1
13. LTERSYSFVTT [ACTA1_Y200_G199S] : class 0
